Hey, just so you know, these numbers are from patent US12011432B2.

MEASUREMENT LABEL: melting point

Sample records with melting point:
[
  {
    "COMPOUND": "O=C(N/N=C/c1c(O)ccc2ccccc12)c1ccccc1O",
    "melting point": "223.8 °C"
  },
  {
    "COMPOUND": "COc1ccc(-c2cnc(-c3ccccc3O)s2)cc1",
    "melting point": "95.2 to 96.8 °C"
  },
  {
    "COMPOUND": "O=C(NNC(=O)c1ccccc1O)c1cccnc1 [TP13, N′-(2-Hydroxybenzoyl)-Nicotinohydrazide]",
    "melting point": "216.6 to 217.7 °C"
  }
]

Dear reader, for each entry below, please note its melting point.
1. O=C(N/N=C/c1cccnc1)c1c(O)ccc2ccccc12
2. O=C(N/N=C/c1cc(-c2ccsc2)ccc1O)c1ccccc1O
3. O=C(NNC(=O)c1c(O)ccc2ccccc12)c1cccnc1
4. COc1ccc(-c2ccsc2)c(/C=N/NC(=O)c2ccccc2O)c1O

1: 202.8 to 204.5 °C; 2: 282.9 to 284.6 °C; 3: 227.1 to 228.6 °C; 4: 229.5 °C

====

MEASUREMENT LABEL: melting point (°C)
Answers are plain numbers, in °C.

[
  {
    "SMILES NOTATION": "Nc1ncnc2c1ncn2-c1ccc(/C=N/NC(=O)c2ccccc2O)cc1",
    "melting point [°C]": 229.5
  }
]

get_value(item= "O=C(N/N=C/c1c(O)ccc2ccccc12)c1ccc(-n2ccccc2=O)cc1" , readout=melting point) returns 258.6

====

system: Human pancreatic cancer cells (Pancl); test: Cancer cell line growth inhibition assay (DNA content); assay type: cell-based; conditions: Homo sapiens, Pancreatic cancer cell, 72 h; continuous exposure for three days, DNA content per well
pIC50: −log10 of the molar value.
For each entry below, report its pIC50 value.

Sample records with pIC50:
[
  {
    "MOLECULE": "O=C(N/N=C/c1c(O)ccc2ccccc12)c1ccccc1O",
    "pIC50": "> 5.82"
  },
  {
    "MOLECULE": "O=C(NNC(=O)c1c(O)ccc2ccccc12)c1cccnc1",
    "pIC50": "< 5.00"
  }
]

Dear reader, for each entry below, please note its pIC50.
1. O=C(N/N=C/c1c(O)ccc2ccccc12)c1ccc(-n2ccccc2=O)cc1
2. COc1ccc(-c2ccccc2)c(/C=N/NC(=O)c2ccccc2O)c1O
3. O=C(N/N=C/c1cccnc1)c1c(O)ccc2ccccc12
4. O=C1Nc2ccccc2/C1=N\NC(=O)c1ccccc1O
5. COc1ccc(-c2cnc(-c3ccccc3O)s2)cc1
6. Nc1ncnc2c1ncn2-c1ccc(/C=N/NC(=O)c2ccccc2O)cc1
7. COc1ccc(-c2ccoc2)c(/C=N/NC(=O)c2ccccc2O)c1O
8. O=C(N/N=C/c1cc(-c2ccsc2)ccc1O)c1ccccc1O

5.52 to 5.70
> 5.82
< 5.00
< 5.00
< 5.00
< 5.00
> 5.82
5.52 to 5.70

====

For each entry below, report its melting point value.

Sample records with melting point:
[
  {
    "COMPOUND": "O=C(N/N=C/c1cc(-c2ccccc2)ccc1O)c1ccccc1O [TP2]",
    "melting point": "273.5 to 274.9 °C"
  },
  {
    "COMPOUND": "COc1ccc(-c2ccoc2)c(/C=N/NC(=O)c2ccccc2O)c1O [TP4]",
    "melting point": "228.3 °C (dec.)"
  }
]

get_value(item= COc1ccc(-c2ccccc2)c(/C=N/NC(=O)c2ccccc2O)c1O [TP5] , readout=melting point) returns 257.9 to 259.4 °C
